biological target: Collagen alpha-1(I) chain (Homo sapiens) (UniProt P02452); experiment: Inhibition of COL1A1 (unknown origin) expressed in human LX2 cells at 20 micromol/L incubated for 48 hrs by Bright-Glo luciferase assay relative to control; type: cell-based; settings: dose 20.0 µmol/L
Sequence (P02452 whole entry): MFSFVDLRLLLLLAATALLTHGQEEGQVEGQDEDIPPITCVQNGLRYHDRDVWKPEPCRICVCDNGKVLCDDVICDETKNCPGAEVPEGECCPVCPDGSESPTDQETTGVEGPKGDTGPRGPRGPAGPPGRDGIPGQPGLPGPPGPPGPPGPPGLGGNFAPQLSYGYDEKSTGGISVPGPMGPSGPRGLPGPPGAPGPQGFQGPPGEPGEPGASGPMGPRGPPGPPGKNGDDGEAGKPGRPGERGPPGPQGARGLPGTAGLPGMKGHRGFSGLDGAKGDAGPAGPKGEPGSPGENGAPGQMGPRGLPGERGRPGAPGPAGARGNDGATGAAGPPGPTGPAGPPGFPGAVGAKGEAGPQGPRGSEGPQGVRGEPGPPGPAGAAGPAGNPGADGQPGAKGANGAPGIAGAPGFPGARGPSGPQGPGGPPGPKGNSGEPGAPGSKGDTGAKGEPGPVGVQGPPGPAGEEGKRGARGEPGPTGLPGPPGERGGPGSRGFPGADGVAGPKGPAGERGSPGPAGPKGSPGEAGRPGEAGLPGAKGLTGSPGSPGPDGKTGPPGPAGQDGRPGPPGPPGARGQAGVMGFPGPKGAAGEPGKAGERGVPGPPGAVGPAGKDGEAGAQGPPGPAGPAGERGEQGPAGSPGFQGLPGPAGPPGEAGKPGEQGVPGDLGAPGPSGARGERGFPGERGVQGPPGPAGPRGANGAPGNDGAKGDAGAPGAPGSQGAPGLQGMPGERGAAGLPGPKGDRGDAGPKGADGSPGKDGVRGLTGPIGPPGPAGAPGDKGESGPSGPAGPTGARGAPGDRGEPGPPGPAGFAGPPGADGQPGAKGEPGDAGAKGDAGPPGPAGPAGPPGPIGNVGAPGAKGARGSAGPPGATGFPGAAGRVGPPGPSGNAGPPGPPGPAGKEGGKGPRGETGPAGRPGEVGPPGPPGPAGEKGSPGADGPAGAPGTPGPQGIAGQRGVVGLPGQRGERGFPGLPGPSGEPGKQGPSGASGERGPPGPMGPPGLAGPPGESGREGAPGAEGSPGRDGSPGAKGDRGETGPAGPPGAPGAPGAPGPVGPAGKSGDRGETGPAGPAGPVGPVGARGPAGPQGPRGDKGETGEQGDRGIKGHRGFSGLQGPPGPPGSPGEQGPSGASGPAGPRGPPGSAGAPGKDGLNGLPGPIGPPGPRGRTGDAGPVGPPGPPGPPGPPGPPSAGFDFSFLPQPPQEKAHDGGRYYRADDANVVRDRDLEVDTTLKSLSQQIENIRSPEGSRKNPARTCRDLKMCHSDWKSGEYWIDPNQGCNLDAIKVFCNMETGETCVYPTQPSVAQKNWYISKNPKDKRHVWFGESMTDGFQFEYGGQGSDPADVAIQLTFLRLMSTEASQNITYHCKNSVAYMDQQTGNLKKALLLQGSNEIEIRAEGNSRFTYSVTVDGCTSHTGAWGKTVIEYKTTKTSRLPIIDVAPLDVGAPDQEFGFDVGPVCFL
recordedMetric: inhibition (%)
State just the number; it will be interpreted in %.

Query :: Look up inhibition for this compound: `COc1ccc(CNc2c(OC)ccc3cc4[n+](cc23)CCc2cc(OC)c(OC)cc2-4)c(OC)c1`
Result :: 36

Query :: Look up inhibition for this compound: `COc1cc2c(cc1OC)-c1cc3ccc(OC)c(OCc4ccc(C(C)C)cc4)c3c[n+]1CC2`
Result :: 75

Query :: Look up inhibition for this compound: `COc1cc2c(cc1OC)-c1cc3ccc(OC)c(OCC4CCC4)c3c[n+]1CC2`
Result :: 9.25

Query :: Look up inhibition for this compound: `COc1cc2c(cc1OC)-c1c(Cc3cccc(F)c3)c3ccc(OC)c(OC)c3c[n+]1CC2`
Result :: 24.8

Query :: Look up inhibition for this compound: `COc1cc2c(cc1OC)-c1cc3ccc(OC)c(NCc4ccccc4)c3c[n+]1CC2`
Result :: 25.4

Query :: Look up inhibition for this compound: `CCCCC(=O)Nc1c(OC)ccc2cc3[n+](cc12)CCc1cc(OC)c(OC)cc1-3`
Result :: 0

Query :: Look up inhibition for this compound: `COc1cc2c(cc1OC)-c1cc3ccc(OC)c(NC(=O)c4ccccc4)c3c[n+]1CC2`
Result :: 0

Query :: Look up inhibition for this compound: `COc1cc2c(cc1OC)-c1c(Cc3ccc(C(C)C)cc3)c3ccc(OC)c(OC)c3c[n+]1CC2`
Result :: 99.9

Query :: Look up inhibition for this compound: `COc1cc2c(cc1OC)-c1cc3ccc(OC)c(OCc4ccc(C)cc4)c3c[n+]1CC2`
Result :: 25.6

Query :: Look up inhibition for this compound: `CCOc1cc2c(cc1OC)-c1cc3ccc(OC)c(NCc4ccc(F)cc4)c3c[n+]1CC2`
Result :: 24.8

Query :: Look up inhibition for this compound: `COc1cc2c(cc1OC)-c1cc3ccc(OC)c(NC(=O)c4cccc(F)c4)c3c[n+]1CC2`
Result :: 1.12

Query :: Look up inhibition for this compound: `COc1cc2c(cc1OC)-c1cc3ccc(OC)c(OC(=O)C(=O)c4cccnc4)c3c[n+]1CC2`
Result :: 6.07

Query :: Look up inhibition for this compound: `COc1cc2c(cc1OC)-c1cc3ccc(OC)c(OCC4CC4)c3c[n+]1CC2`
Result :: 14

Query :: Look up inhibition for this compound: COc1cc2c(cc1OC)-c1cc3ccc(OC)c(OC(C)c4ccccc4)c3c[n+]1CC2 (centres undefined)
Result :: 22.1

Query :: Look up inhibition for this compound: `CCCCCCNc1c(OC)ccc2cc3[n+](cc12)CCc1cc(OC)c(OC)cc1-3`
Result :: 71.4

Query :: Look up inhibition for this compound: `COc1cc2c(cc1OC)-c1cc3ccc(OC)c(NC(=O)C4CCCC4)c3c[n+]1CC2`
Result :: 10.8

Query :: Look up inhibition for this compound: `CCCCCCCCC(=O)Nc1c(OC)ccc2cc3[n+](cc12)CCc1cc(OC)c(OC)cc1-3`
Result :: 16.6

Query :: Look up inhibition for this compound: `COc1cc2c(cc1OC)-c1cc3ccc(OC)c(OCc4ccc(Cl)cc4)c3c[n+]1CC2`
Result :: 28.9

Query :: Look up inhibition for this compound: `COc1cc2c(cc1OC)-c1cc3ccc(OC)c(NCc4cccc(C#N)c4)c3c[n+]1CC2`
Result :: 10.5
